Test system: MOLT-4 leukemia
Experiment: NCI-60 one-dose screen, 48 h (100 = growth as untreated, 0 = no growth, -100 = all killed)
Conditions: 10 µM unless noted
This is part of a sample that, as a whole, favours compounds with a hit. Of some 83,000 tested, about 20% had one in any assay. Calls of active or inactive are those of the source. Rule for the calls: active = growth percent below 10; inactive = the rest.
VALUE_KIND: growth

Query: Fill in: growth of COc1cc2c(cc1OC)C(Sc1ccc(F)cc1)c1c(nc(N)c(C#N)c1N)O2 (centres undefined) is ___
Response: 0.279% (active)

Query: Input O=C1Nc2ccccc2/C1=C/c1ccc(CO)n1-c1ccc(Cl)cc1
Response: 26.7% (inactive)

Query: How about this molecule: C=C(C)[C@@H]1CC[C@]2(COCCCNCCC#N)CC[C@]3(C)[C@H](CC[C@@H]4[C@@]5(C)CC[C@H](OCCCNCCC#N)C(C)(C)[C@@H]5CC[C@]43C)[C@@H]12
Response: 28.2% (inactive)

Query: One more molecule: N#Cc1cccc(CN2CCC3=C(C2)C(=O)N(Cc2ccc(Cl)cc2)C2=NCCCN23)c1
Response: 48.3% (inactive)

Query: Now try C#CCOc1ccc(/C=N\Nc2nc(-c3ccc(C)cc3)cs2)cc1OC .
Response: 79.5% (inactive)

Query: Could you do the same for COc1c(N2CC3CCCNC3C2)c(F)cc2c(=O)c(C(=O)N/N=C/c3ccc(Br)cc3)cn(C3CC3)c12 (centres undefined) , please?
Response: 54.9% (inactive)

Query: Cn1ccnc1C(=O)/C=C/c1ccc(CNC(=O)c2c(F)c(F)c(F)c(F)c2F)cc1 ?
Response: 23% (inactive)

Query: Try this molecule too: COc1ccc([C@H]2[C@H](O)C(=O)N2c2cc(OC)c(OC)c(OC)c2)cc1F
Response: 15.2% (inactive)

Query: Then O=S(=O)(NCCNc1nccc(-n2cnc3ccccc32)n1)c1ccc(C(F)(F)F)cc1 ?
Response: 45.2% (inactive)

====

Tested on: OVCAR-5 ovarian
Assay: NCI-60 one-dose screen, 48 h
Details: 10 µM unless noted
Compounds without any hit were thinned out: in the full panel of roughly 83,000, 20% have a hit. Calls of active or inactive are those of the source. Rule for the calls: active = growth percent below 10; inactive = the rest.
Answer with one of the outcomes given here: active, inactive

C#CCOc1ccc(/C=N\Nc2nc(-c3ccc(C)cc3)cs2)cc1OC : inactive
COc1ccc(C(=O)Nc2ncc(Cc3ccccc3Cl)s2)cc1 : inactive
NS(=O)(=O)c1ccc(Nc2nc(Nc3ccccc3)nc3nnc(SCC(=O)NC4CCCCC4)n23)cc1 : inactive
Cc1cc(-c2ccc(Cl)cc2)n(Cc2nnc(SCC(=O)Nc3ccc(S(N)(=O)=O)cc3)n2C2CCCCC2)n1 : inactive
Nc1nc(-c2cccc([N+](=O)[O-])c2)c(N=Nc2ccc(Br)cc2)s1 : active
O=S(=O)(Oc1ccc(-c2nnc(Nc3ccccc3)s2)cc1)C(F)(F)C(F)(F)C(F)(F)C(F)(F)C(F)(F)C(F)(F)F : inactive
CC(=O)c1ccc(Nc2nc(SCC(C)C)nc(-c3ccccc3)c2C#N)cc1 : inactive
COc1cc(C2N=C(NNc3ccccc3)NC(C)=C2C(C)=O)ccc1O (configuration not stated) : inactive
CNCc1cccc2c1OCCCCCCC(C)(O)CC(C)(C)S(=O)(=O)c1ccc(cc1)-c1cnc(N)c(n1)C(=O)N2 (configuration not stated) : inactive
N#Cc1cccc(CN2CCC3=C(C2)C(=O)N(Cc2ccc(Cl)cc2)C2=NCCCN23)c1 : inactive

From here, focus on the item given below.
Query: Hey, what did the test say about CNC(=O)c1cc(Oc2ccc3nc(NC(=O)c4ccc(N5CCOCC5)c(C(F)(F)F)c4)sc3c2)ccn1 ?
Response: inactive

====

System: UACC-62 melanoma
Experiment: NCI-60 one-dose screen, 48 h
Settings: 10 µM unless noted
The panel holds about 83,000 compounds, 20% with a hit somewhere; the sample as a whole holds those more often. The source made the active and inactive calls. The calls were made as follows: active = growth percent below 10; inactive = the rest.
Can you answer with just one of these options? true for active, false for inactive

Recorded results for 3 compounds are shown here.
COc1cc(-c2nn(C(C)(C)C)cc2-c2ccnc(NCCCNS(=O)(=O)c3cccc(F)c3)n2)ccc1Cl : false
O=C(O)c1cn(C2CC2)c2cc(N3CCN(C(=O)CN4C(=O)CSC4=O)CC3)c(F)cc2c1=O : false
Cc1ccc(CSc2nc(-c3ccc(Cl)cc3)c(C#N)c(N3CCNCC3)n2)cc1 : false

Please look at the following compound next.
Query: Recorded test outcome, item CNC(=O)c1cc(Oc2ccc3nc(NC(=O)c4cc(N5CCOCC5)cc(C(F)(F)F)c4)sc3c2)ccn1
Response: false

====

Tested on: OVCAR-4 ovarian
Assay: NCI-60 one-dose screen, 48 h
Settings: 10 µM unless noted
About 83,000 compounds went through this panel and 20% of them were active in at least one assay; those are over-represented in the sample as a whole. Activity calls are given as the source filed them. Rule for the calls: active = growth percent below 10; inactive = the rest.
Tick one outcome: true (1) = active, false (0) = inactive

Consider the following illustrative entries.
CS(=O)(=O)c1ccc(-c2nn(-c3ccccc3)cc2/C=N/NC(=O)c2nc(N)n[nH]2)cc1 : false (0)
N=c1c2cc(-c3ccccc3)oc2ncn1/N=C/c1ccc(Br)cc1 : false (0)
Cn1cc(CNc2nc3ccc(OC/C(=C/F)CN)cc3o2)ccc1=O : false (0)
c1ccc(C(c2nc3ncncc3[nH]2)N2CSc3nc4ncncc4n3C2)cc1 (centres undefined) : false (0)
COC(=O)C(Cc1ccccc1)Nc1nc(NC(Cc2ccccc2)C(=O)OC)nc(N2CCOCC2)n1 (centres undefined) : false (0)

Query: Hi, do you know how C#CCOC(=O)[C@@H]1CCCN1CC#C came out in this test?
Response: false (0)

Query: What would you report for CN(Cc1ccccc1)S(=O)(=O)/N=C1\NC(=O)NC1=C(Cl)Cl ?
Response: false (0)

Query: // next record CNC1CCc2c(sc(NC(=O)c3ccc(C(C)(C)C)cc3)c2C(N)=O)C1 (centres undefined)
Response: false (0)

Query: Query COC(=O)c1ccc(NC2=C/C(=N/S(=O)(=O)c3ccc(C(=O)O)cc3)c3ccccc3C2=O)cc1 next
Response: true (1)

Query: Quick one: COCCNc1ccc2ncc(C#Cc3cncc(C(=O)Nc4ccc(CN5CCN(C)CC5)c(C(F)(F)F)c4)c3)n2n1
Response: true (1)

Query: And then Cc1nn(-c2ccccc2)c2ncnc(N/N=C/c3cccc(O)c3)c12 , what is it?
Response: false (0)

Query: What about Clc1ccc(N/N=c2/oc3ccccc3cc2-c2cc3ccccc3[nH]2)cc1 ?
Response: false (0)

Query: Try this compound too: COc1cc(-c2nc(SC(C)C)n(C(C)C)c(=O)c2C#N)ccc1OCc1ccccc1
Response: true (1)

Query: Proceed to N#Cc1c(Nc2ccccc2)nn2c(-c3ccc([N+](=O)[O-])cc3)ccnc12
Response: false (0)

====

Measured growth by item
Tested on: OVCAR-3 ovarian
Experiment: NCI-60 one-dose screen, 48 h (100 = growth as untreated, 0 = no growth, -100 = all killed)
Settings: 10 µM unless noted
About 83,000 compounds went through this panel and 20% of them were active in at least one assay; those are over-represented in the sample as a whole.
Numeric only. Scale: %

Use the examples below as a reference point.
COc1cc(OC)c(/C=C/S(=O)(=O)Cc2ccc(OC)c(NCC(=O)NO)c2)c(OC)c1 : 2.98
NC(N)=Nc1ccc(Oc2cccc(Nc3ccc(Cl)c(C(F)(F)F)c3)c2)cn1 : -93.8
Clc1cccc(/C=N/Nc2nc(N/N=C/c3cccc(Cl)c3Cl)nc(N3CCCCC3)n2)c1Cl : 8.19
CC/C(=C/c1cc(OC)ccc1O)c1ccc2cc(OC)ccc2[o+]1 : 20.7
Cn1ccnc1C(=O)/C=C/c1ccc(CNC(=O)c2c(F)c(F)c(F)c(F)c2F)cc1 : 14.8
N#Cc1cccc(CN2CCC3=C(C2)C(=O)N(Cc2ccc(Cl)cc2)C2=NCCCN23)c1 : 23.3
O=c1[nH]c(Sc2sc3ccc(Cl)cc3c2CBr)nc(=S)[nH]1 : 56
O=S(=O)(NCCCNc1nccc(-c2[nH]c(-c3ccccc3)nc2-c2ccc(Cl)c(O)c2)n1)c1cccc(F)c1 : 60.3

Turning now to a further record.
Query: Request the reported growth associated with COc1cc(/C=C/C(=O)c2ccc(NC(=O)CSc3nnc(-c4ccc(-c5nc6ccc(Cl)cc6[nH]5)cc4)o3)cc2)cc(OC)c1OC
Response: 84.1

====

Tested on: SK-MEL-5 melanoma
Test: NCI-60 one-dose screen, 48 h
Conditions: 10 µM unless noted
Compounds without any hit were thinned out: in the full panel of roughly 83,000, 20% have a hit. Active and inactive are the calls of the source. The calls were made as follows: active = growth percent below 10; inactive = the rest.
The categories you may choose from are 1 for active, 0 for inactive

Query: What was the test verdict on Cc1ccc(-c2cc3nc(C(Cl)Cl)nc(-c4cccs4)n3n2)cc1 ?
Response: 0

====

System: IGROV1 ovarian
Assay: NCI-60 one-dose screen, 48 h (100 = growth as untreated, 0 = no growth, -100 = all killed)
Conditions: 10 µM unless noted
Compounds without any hit were thinned out: in the full panel of roughly 83,000, 20% have a hit.
Below, each entry is listed alongside its reported growth.
Only the number, expressed in %, is required.

Worked set:
Cc1c(F)cc(C(N)=O)cc1NCC(=O)Nc1ccc([N+](=O)[O-])cc1 : 80.1
N#Cc1c(Nc2ccccc2)nn2c(-c3ccc([N+](=O)[O-])cc3)ccnc12 : 100
C=CCn1c(SCC(=O)Nc2ccc(C(=O)/C=C/c3ccc(C)cc3)cc2)nnc1-c1c[nH]c2ccccc12 : 78.4
CCNC(=O)N1CCc2cc(OC)c(OCCc3ccc(OC)c(N)c3)cc2C1c1cc(C)c(C)cc1C (stereo not drawn) : 31.9
CCCCCc1ccc(S(=O)(=O)Nc2cc(-c3csc(NC(=O)CN4CCN(C)CC4)n3)ccc2OC)cc1 : 14.2

Query: For the molecule COc1cc(/C=C/C(=O)c2ccc(NC(=O)CSc3nnc(-c4ccc(-c5nc6ccc(Cl)cc6[nH]5)cc4)o3)cc2)cc(OC)c1OC , what growth is on record?
Response: 88.3

Query: Quick one: CCNC(=O)N1CCc2cc(OC)c(OCCc3ccc(OC)cc3)cc2C1c1ccc([N+](=O)[O-])cc1C (stereo not drawn)
Response: 24.9

Query: Request: COc1cc(/C=N/NC(=O)c2cn(C3CC3)c3c(OC)c(N4CC5CCCNC5C4)c(F)cc3c2=O)ccc1O (stereo not drawn)
Response: 16.4
